The values you see were collected from paper PMC10488051.

Measured Target: SARS-CoV-2 PL^pro (Severe acute respiratory syndrome coronavirus 2, UniProt P0DTD1)
Method Summary: PL^pro enzymatic inhibition assay (FRET-based, Z-RLRGG-AMC substrate)
Format: biochemical
Condition Set: Table 1 thiazole series; enzymatic inhibition assay, 25 °C, pH 7.5; uncertainty approx. 1.8-fold of Kd
Assign Kd to each entry below.

Molecule: O=C(O)CCN(c1nc(C(=O)/C=C/c2ccccc2)c(C(=O)/C=C/c2ccccc2)s1)c1cccc2ccccc12
Reported Endpoint: Kd
Reported: ≥ 50 µM

# return Kd for each item in the list
1. O=C(O)CCN(C1=NC(=O)C(=Cc2cccs2)S1)c1cccc2ccccc12
2. O=C(O)CCNc1cccc2ccccc12 [Compound 1, 3-(naphtylamino]propanoic acid]

Result:
["≥ 50 µM", "68 µM"]
